target: acetylcholine receptor; test: SPR, AchR immobilised on chip, peptide at 10 uM
metric: Binding affinity (RU)

KQYCKK [6mer-2-314]    127
RLFQKK [6mer-2-271]    131
KWICKK [6mer-2-298]    149
RGLYKR [6mer-2-317]    135
RLVCRK [6mer-2-276]    153
RLRSKK [6mer-2-307]    141
RQIQKK [6mer-2-278]    135
KVILRR [6mer-2-334]    146

Values were extracted from patent US20250011363A1.
